ASSAY_NOTES: SPR binding of NVA1309 to immobilized P4-derived peptides, RU400 as % of peptide P4
CONDITION: NVA1309 1 mM; P4=100%; Example 7
List of % BINDING (RU400) 1 mM values.
Please reply with the bare figure in % and do not write the unit itself.

Example cases with answers are listed next.
Recorded result, IKAKGGGC (Peptide P15, P4 analogue containing only the amino-terminal part of P4 + GGGC anchor) , % BINDING (RU400) 1 mM: 25

Documented % BINDING (RU400) 1 mM of IAAKLEETITQAGGGC (Peptide P13, P4 analogue with Lysine in position 2 (K) substituted by Alanine (A) + GGGC anchor) [P4 analogue, K2 A-substituted + GGGC anchor] : 88

sequence IKAALEETITQAGGGC (Peptide P14, P4 analogue with Lysine in position 4 (K) substituted by Alanine (A) + GGGC anchor) [P4 analogue, K4 A-substituted + GGGC anchor] , % BINDING (RU400) 1 mM observed: 11

Proceed to the following item.
The sequence listed as IKAKLEETITQAGGGC (Peptide P4, carboxy-terminal VGGC_a2 region (II) + GGGC anchor) [carboxy-terminal VGGC_α2 region (II) + GGGC anchor, positive control] shows % BINDING (RU400) 1 mM equal to 100

The measured values listed here are drawn from patent US20220002359A1.
